// data source = PubChem BioAssay (NCI)

Each record here notes measured growth inhibition.
- Assay overview: NCI Yeast Anticancer Drug Screen. Data for the mec2-1 strain (AID 157)
- Condition info: S. cerevisiae mec2-1 strain, at 5.0 µM (retest, dose inferred, filed as 0.5), active compounds read high
This is part of a sample that, as a whole, favours compounds with a hit. Of some 79,000 tested, about 15% had one in any assay.
Readout: growth inhibition (%)

Compound	Readout	Experimental value
COc1ccc(C(c2ccc(OC)c(OC)c2)C(Cl)(Cl)Cl)cc1OC	growth inhibition	8
CCCCCCCCCCCCCCCC(=O)N1CC[N+](C)(C)CC1	growth inhibition	5
COc1ccc(C2Oc3ccc(Cl)cc3C=C2[N+](=O)[O-])cc1 (stereo not drawn)	growth inhibition	99

----------
- Assay overview: NCI Yeast Anticancer Drug Screen. Data for the mlh1 rad18 strain (AID 175)
- Condition info: S. cerevisiae mlh1 rad18 strain growth inhibition; at 5.0 µM (retest, dose inferred, filed as 0.5); active compounds read high
This is part of a sample that, as a whole, favours compounds with a hit. Of some 79,000 tested, about 15% had one in any assay. Activity calls are given as the source filed them. No stated cut-off is given here; in the data, active means growth inhibition above about 70%; inactive means the rest.

Compound	growth inhibition
COc1ccccc1NC(=O)/C(=C\N1C(=O)/C(=C/c2cc(OC)c(OC)c(OC)c2)SC1=S)C(C)=O	-39% (inactive)
NC(=O)CCSC(=S)N1CCOCC1	1% (inactive)
COC(=O)c1c2oc3c(C(=O)OC)cccc3nc-2cc(N)c1=O	3% (inactive)
[Cl][Sn]1([Cl])[CH2]CC[CH2][Sn]([Cl])([Cl])[CH2]CC[CH2][Sn]([Cl])([Cl])[CH2]CC[CH2][Sn]([Cl])([Cl])[CH2]CC[CH2]1	-2% (inactive)
O=C1C=C(c2cccc(-c3ccccc3)c2)CCC1	-1% (inactive)
CSc1cc(-c2cc3ccccc3o2)oc(=O)c1C#N	-4% (inactive)
COc1nc(NC2OCC(O)C(O)C2O)c(Cl)c(=O)n1C (stereo not given)	-5% (inactive)
COC1OC(COC(=O)c2ccccc2)CC1F (stereo not given)	18% (inactive)
ClCc1ccc2oc3ccccc3c2c1	-3% (inactive)
O=[N+]([O-])c1ccc(NS(=O)(=O)c2ccccc2)c(NS(=O)(=O)c2ccccc2)c1	11% (inactive)
O=c1oc(-c2cccc(C(Cl)Cl)c2)ns1	13% (inactive)
COc1ccc2c(c1)CCC1C2CCC2(C)C(=O)C(SC3=NC=NC4=NC=NC43)CC12 (stereo not given)	20% (inactive)
Cc1cc(Cl)c(C(C)C)cc1O	8% (inactive)
O=C(COC(=O)c1ccc(O)cc1)c1ccc(-c2ccccc2)cc1	-5% (inactive)
Cc1c(NC(=O)/C(=N/NC(=S)N=N)C2C(=O)CC(C)(C)CC2=O)c(O)c2ccccc2c1O	9% (inactive)

----------
- Assay overview: NCI Yeast Anticancer Drug Screen. Data for the rad50 strain (AID 155);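 further: 0% = growth of vehicle-only cultures of the same strain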
- Condition info: S. cerevisiae rad50 strain growth inhibition; at 50.0 µM; active compounds read high
About 79,000 compounds went through this panel and 15% of them were active in at least one assay; those are over-represented in the sample as a whole.

Compound	growth inhibition / %
OC1CCCCC1Cc1ccc(Cl)cc1 (stereo not given)	90.5
ClC(Cl)(Cl)C(NCCN1CCOCC1)c1ccccc1 (stereo not given)	80
O=[N+]([O-])c1ccc2c(c1)CCc1ccccc1-2	52.6
CCCC#CC(O)(C(=O)OC1CCN(C)CC1)C1CCCCC1 (stereo not given)	63.5
CC(=O)c1nc2ccccc2n1C(C)C(=O)c1ccccc1 (stereo not given)	16.9
CC(=O)N(c1ccccc1)C(C)C	-5.75
CCCCCN(CCCCC)CC(C)(C)C(O)c1ccc(OC)c2ccccc12 (stereo not given)	51.9
O=C(/C=C/c1ccccc1)CCN1CCN(CCC(=O)/C=C/c2ccccc2)CC1	99.2
[N-]=[N+]=NCC(O)c1ccc2c(c1)[nH]c1ccccc12 (stereo not given)	47.9
O=Cc1ccc(/C=N\Nc2ccccc2)cc1	82.3
